These entries and their values trace back to patent US20200317776A1.

# Tested system: human TREM2/DAP12 fusion protein (human, UniProt O43914 41-113, limits assumed)
# Sequence (O43914 other isoform, or with tags, fused parts or gaps limits assumed): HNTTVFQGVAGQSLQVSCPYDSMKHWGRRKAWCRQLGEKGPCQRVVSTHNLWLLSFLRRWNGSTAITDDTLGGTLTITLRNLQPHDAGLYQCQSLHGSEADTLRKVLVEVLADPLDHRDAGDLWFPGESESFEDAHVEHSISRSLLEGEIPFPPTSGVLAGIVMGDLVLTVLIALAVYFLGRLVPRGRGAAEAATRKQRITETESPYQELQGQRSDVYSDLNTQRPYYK
# Test: cell-based or functional assay
Readout name: luciferase activation, soluble IgG, EC50 (nM)

binder="AL2p-2 (antibody, V domains shown, AL2p-h50 variant; Fab and IgG formats under one id) VH: QVQLVQSGAEVKKPGSSVKVSCKASGYAFSSSWMNWVRQAPGQGLEWMGRIYPGGGDTNYAQKFQGRVTITADESTSTAYMELSSLRSEDTAVYYCARLLRNQPGESYAMDYWGQGTLVTVSS VL: DVVMTQTPLSLSVTPGQPASISCRSSQSLVHSNGYTYLHWYLQKPGQSPQLLIYKVSNRFSGVPDRFSGSGSGTDFTLKISRVEAEDVGVYYCSQSTRVPYTFGQGTKLEIK" readout_name="luciferase activation, soluble IgG, EC50" measurement=23
binder="AL2p-3 (antibody, V domains shown, AL2p-h50 variant; Fab and IgG formats under one id) VH: QVQLVQSGAEVKKPGSSVKVSCKASGYAFSSSWMNWVRQAPGQGLEWMGRIYPGEGDTNYAQKFQGRVTITADESTSTAYMELSSLRSEDTAVYYCARLLRNQPGESYAMDYWGQGTLVTVSS VL: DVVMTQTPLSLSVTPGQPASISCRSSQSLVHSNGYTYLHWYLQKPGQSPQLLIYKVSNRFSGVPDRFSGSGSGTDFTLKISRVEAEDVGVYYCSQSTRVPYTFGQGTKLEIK" readout_name="luciferase activation, soluble IgG, EC50" measurement=50
binder="AL2p-4 (antibody, V domains shown) VH: QVQLVQSGAEVKKPGSSVKVSCKASGYAFSSSWMNWVRQAPGQGLEWMGRIYPGQGDTNYAQKFQGRVTITADESTSTAYMELSSLRSEDTAVYYCARLLRNQPGESYAMDYWGQGTLVTVSS VL: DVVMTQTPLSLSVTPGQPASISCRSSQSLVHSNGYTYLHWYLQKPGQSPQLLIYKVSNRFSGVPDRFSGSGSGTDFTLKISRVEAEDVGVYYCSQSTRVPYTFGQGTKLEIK" readout_name="luciferase activation, soluble IgG, EC50" measurement=66.2
binder="AL2p-31 (antibody, V domains shown, Fab and IgG formats under one id) VH: QVQLVQSGAEVKKPGSSVKVSCKASGYAFSSQWMNWVRQAPGQGLEWMGRIYPGGGDTNYARKFQGRVTITADESTSTAYMELSSLRSEDTAVYYCARLLRNQPGESYAMDYWGQGTLVTVSS VL: GVVMTQTPLSLSVTPGQPASISCRSSQSLVHSNGYTYLHWYLQKPGQSPQLLIYKVSNRRSGVPDRFSGSGSGTDFTLKISRVEAEDVGVYYCSQSTRVPYTFGQGTKLEIK" readout_name="luciferase activation, soluble IgG, EC50" measurement=6.92
binder="AL2p-62 (antibody, V domains shown, Fab and IgG formats under one id) VH: QVQLVQSGAEVKKPGASVKVSCKASGYAFSSQWMNWVRQAPGQRLEWIGRIYPGEGDTNYAGKFQGRVTITADTSASTAYMELSSLRSEDTAVYYCARLLRNQPGESYAMDYWGQGTLVTVSS VL: DVVMTQSPDSLAVSLGERATINCRSSQSLVHSNQYTYLHWYQQKPGQSPKLLIYKVSNRFSGVPDRFSGSGSGTDFTLTISSLQAEDVAVYYCSQSTRVPYTFGGGTKVEIK" readout_name="luciferase activation, soluble IgG, EC50" measurement=25.1
